Structures can show the parent of a compound that is named as a salt.
measurement kind: melting point

Please review the entries below; each comes with its answer.
CCCC(Oc1cccc(C(F)(F)F)c1SC)C1=NCCN1 (centres unmarked) (as salt: maleate); 90 to 109 °C
CCC(Oc1cccc(C(F)(F)F)c1CO)C1=NCCN1 (centres unmarked) (as salt: chloride); 150 to 157 °C

Here are 3 molecules. What values of melting point were reported for them?
1. CCc1c(OC(CC)C2=NCCN2)cccc1C(F)(F)F (centres unmarked) (as salt: oxalate)
2. CCC(Oc1cccc(C(F)(F)F)c1C(F)(F)F)C1=NCCN1 (centres unmarked)
3. CCCC(Oc1cccc(C(F)(F)F)c1S(C)(=O)=O)C1=NCCN1 (centres unmarked)

Result:
["185 to 187 °C", "127 to 133 °C", "112 to 120 °C"]

Where do these numbers come from? They come from patent US8497293B2.
